Tested on: DU-145
Test details: Antiproliferative activity against human DU145 cells after 48 hrs by resazurin reduction test
Format: functional, cell-based
Condition notes: DU-145, 48 h
pIC50: −log10 of the molar value.
For each of the molecules below, state its pIC50.

Please list pIC50 recorded for the molecule `Nc1ncc(I)c(-c2c[nH]c3cccc(N)c23)n1`
< 4.30

Please list pIC50 recorded for the molecule `CC(=O)c1ccc(-c2cnc(N)nc2-c2c[nH]c3cc(Br)ccc23)cc1`
> 6.22

Please list pIC50 recorded for the molecule `Nc1ncc(I)c(-c2c[nH]c3cc(Br)ccc23)n1`
> 6.00
